Reference source: patent US11873295B2

# IC50 per entry
TARGET DESC: human full length PIK3KA Wild-type (p110α/p85α complex) (Homo sapiens)
Construct: Recombinant, catalytically active human full length PIK3KA Wild-type and H1047R mutant were purchased as 1:1 complex; 6xHis (N); purchased EMD Millipore Sigma 14-602M
ASSAY PROCEDURE: PI3K-alpha kinase (PIK3CA) biochemical activity, wild-type, ADP-Glo
RUN CONDITIONS: PI3K-α (PIK3CA) biochemical, Soy PI lipid substrate

>  <MOLECULE>
Cc1cc([C@@H](C)Nc2ccccc2C(=O)O)c2oc(-c3ccc(F)cc3F)c(C)c(=O)c2c1 [Example 75]

>  <OBSERVED>
1000 to 5000 nM

$$$$

Entry CC(=O)c1c(-c2ccccc2)oc2c([C@@H](C)Nc3ccccc3C(=O)O)cc(C)cc2c1=O [Example 119] has what IC50?
500 to 1000 nM

// IC50 lookup, key: Cc1c(-c2ccccc2)oc2c([C@@H](C)Nc3cccnc3C(=O)O)cc(C(F)(F)F)cc2c1=O [Example 122]
> 10000 nM

IC50 for Cc1cc([C@@H](C)Nc2ccc(Cl)nc2C(=O)O)c2oc(-c3cccc(C#N)c3)c(C)c(=O)c2c1 [Example 121] ?
500 to 1000 nM
